target: EP4 receptors (Homo sapiens, UniProt P35408); construct: expressed in transfected cells; host or cells: HEK-293; test: Radioligand binding, [3H]PGE2, HEK-293 cells stably expressing EP4 receptors; conditions: [3H]PGE2 competition
Sequence (P35408 whole entry): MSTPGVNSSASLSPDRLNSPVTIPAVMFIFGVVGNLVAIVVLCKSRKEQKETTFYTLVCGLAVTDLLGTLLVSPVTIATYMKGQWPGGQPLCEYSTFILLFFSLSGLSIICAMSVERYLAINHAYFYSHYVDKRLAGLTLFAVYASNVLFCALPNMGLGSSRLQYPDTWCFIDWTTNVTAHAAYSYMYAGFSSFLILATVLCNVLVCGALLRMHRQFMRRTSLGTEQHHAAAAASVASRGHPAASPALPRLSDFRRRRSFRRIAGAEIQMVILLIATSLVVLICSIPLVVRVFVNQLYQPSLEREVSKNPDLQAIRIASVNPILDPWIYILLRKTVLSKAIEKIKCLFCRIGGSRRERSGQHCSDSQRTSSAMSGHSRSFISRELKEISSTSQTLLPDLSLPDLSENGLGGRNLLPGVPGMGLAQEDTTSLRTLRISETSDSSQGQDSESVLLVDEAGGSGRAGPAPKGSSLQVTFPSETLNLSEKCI
READOUT: Ki (nM)
Give a bare numeral; the unit nM is implied.

{"columns": ["COMPOUND", "READOUT", "RESULT UNITS", "EXPERIMENTAL RESULT"],
 "data": [
  ["CCCCCC(O)c1ccc([C@H]2C(=O)C=C[C@@H]2CCCc2ccc(C(=O)O)s2)cc1 (stereo partly shown)", "Ki", "nM", 1940],
  ["CCCCCC(O)c1ccc([C@H]2C(=O)C=C[C@@H]2C/C=C\\CCCC(=O)O)cc1 (stereo partly shown)", "Ki", "nM", 4330],
  ["CCCCCC(O)c1ccc([C@H]2C(=O)CC[C@@H]2C/C=C\\CCCC(=O)O)cc1 (stereo partly shown)", "Ki", "nM", 4210]
]}

# return recorded Ki for input CCCCCC(O)c1ccc([C@@H]2[C@@H](C/C=C\CCCC(=O)O)CC[C@H]2Cl)cc1 (stereo partly shown) 1030

----------
target: hEP4/Gqs5 (Homo sapiens); construct: expressed in transfected cells; host or cells: HEK-293(EBNA); assay: FLIPR calcium signal, HEK-293(EBNA) cells expressing hEP4/Gqs5; type: cell-based; settings: read-out: Ca2+ Signal-EC50(nM) EP4
READOUT: EC50

Sample answers from the record:
{"columns": ["COMPOUND", "EC50"],
 "data": [
  ["CCCCCC(O)c1ccc([C@H]2C(=O)CC[C@@H]2CCCc2ccc(C(=O)O)s2)cc1 (stereo partly drawn) [compound 1]", "> 10000 nM"],
  ["CCCCCC(O)c1ccc([C@@H]2[C@@H](C/C=C\\CCCC(=O)O)CC[C@H]2O)cc1 (stereo partly drawn) [compound 7]", "> 10000 nM"]
]}

Return reported EC50 for target or system hEP4/Gqs5 (Homo sapiens), item CCCCCC(O)c1ccc([C@H]2C(=O)C=C[C@@H]2CCCc2ccc(C(=O)O)s2)cc1 (stereo partly drawn) [compound 11] . > 10000 nM

----------
Target: hDP/Gqs5 (Homo sapiens, UniProt Q13258)
Construct: expressed in transfected cells; host or cells: HEK-293(EBNA)
Sequence (Q13258 1-359): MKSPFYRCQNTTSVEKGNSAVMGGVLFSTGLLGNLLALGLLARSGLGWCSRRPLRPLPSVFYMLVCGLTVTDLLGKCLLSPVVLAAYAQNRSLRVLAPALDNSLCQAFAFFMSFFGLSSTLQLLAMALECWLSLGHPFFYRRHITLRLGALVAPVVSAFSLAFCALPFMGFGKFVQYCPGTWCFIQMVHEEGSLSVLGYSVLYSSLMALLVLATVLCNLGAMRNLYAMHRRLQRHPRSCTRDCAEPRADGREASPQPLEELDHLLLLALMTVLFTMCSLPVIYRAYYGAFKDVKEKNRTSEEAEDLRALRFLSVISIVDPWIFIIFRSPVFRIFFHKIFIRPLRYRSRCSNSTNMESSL
Assay: FLIPR calcium signal, HEK-293(EBNA) cells expressing hDP/Gqs5
Type: cell-based
Conditions: read-out: Ca2+ Signal-EC50(nM) DP
READOUT: EC50 (nM)
Give a bare numeral; the unit nM is implied.

# return recorded EC50 for input CCCCCC(O)c1ccc([C@H]2C(=O)CC[C@@H]2CCCc2ccc(C(=O)O)s2)cc1 (stereo partly shown) 9060

----------
target: hDP/Gqs5 (Homo sapiens, UniProt Q13258); construct: expressed in transfected cells; host or cells: HEK-293(EBNA); assay: FLIPR calcium signal, HEK-293(EBNA) cells expressing hDP/Gqs5; format: cell-based
READOUT: Ca2+ Signal-EC50(nM) DP

Sample answers from the record:
{"columns": ["MOLECULE", "EXPERIMENTAL RESULT"],
 "data": [
  ["CCCCCC(O)c1ccc([C@H]2C(=O)CC[C@@H]2CCCc2ccc(C(=O)O)s2)cc1 (stereo partly drawn)", "notactive"],
  ["CCCCCC(O)c1ccc([C@H]2C(=O)C=C[C@@H]2CCCc2ccc(C(=O)O)s2)cc1 (stereo partly drawn)", "notactive"],
  ["CCCCCC(O)c1ccc([C@@H]2[C@@H](C/C=C\\CCCC(=O)O)CC[C@H]2O)cc1 (stereo partly drawn)", "notactive"],
  ["CCCCCC(O)c1ccc([C@@H]2[C@@H](C/C=C\\CCCC(=O)O)CC[C@H]2Cl)cc1 (stereo partly drawn)", "notactive"],
  ["CCCCCC(O)c1ccc([C@H]2C(=O)CC[C@@H]2C/C=C\\CCCC(=O)O)cc1 (stereo partly drawn)", "notactive"]
]}

Now consider the entry below.
# return recorded Ca2+ Signal-EC50(nM) DP for input CCCCCC(O)c1ccc([C@@H]2[C@@H](CCCc3ccc(C(=O)O)s3)CCC2(Cl)Cl)cc1 (stereo partly drawn) notactive

----------
target: hEP2/Gqs5 (Homo sapiens); construct: expressed in transfected cells; host or cells: HEK-293(EBNA); experiment: FLIPR calcium signal, HEK-293(EBNA) cells expressing hEP2/Gqs5; format: cell-based; settings: value outside parentheses, read-out: Ca2+ Signal-EC50(nM) EP2
READOUT: log10 of EC50 (log10 of the value in nM)
A difference of one corresponds to tenfold EC50; all values are log10 with EC50 in nM.

Return reported log10 of EC50 for target or system hEP2/Gqs5 (Homo sapiens), item CCCCCC(O)c1ccc([C@H]2C(=O)CC[C@@H]2CCCc2ccc(C(=O)O)s2)cc1 (stereo partly shown) [compound 1] . 1.79

Return reported log10 of EC50 for target or system hEP2/Gqs5 (Homo sapiens), item CCCCCC(O)c1ccc([C@@H]2[C@@H](CCCc3ccc(C(=O)O)s3)CCC2(Cl)Cl)cc1 (stereo partly shown) . 3.21

Return reported log10 of EC50 for target or system hEP2/Gqs5 (Homo sapiens), item CCCCCC(O)c1ccc([C@H]2C(=O)CC[C@@H]2C/C=C\CCCC(=O)O)cc1 (stereo partly shown) . 2.58

Return reported log10 of EC50 for target or system hEP2/Gqs5 (Homo sapiens), item CCCCCC(O)c1ccc([C@H]2C(=O)CC[C@@H]2CCCc2ccc(C(=O)O)s2)cc1 (stereo partly shown) [compound 2] . 1.40

Return reported log10 of EC50 for target or system hEP2/Gqs5 (Homo sapiens), item CCCCCC(O)c1ccc([C@H]2C(=O)C=C[C@@H]2CCCc2ccc(C(=O)O)s2)cc1 (stereo partly shown) . 2.32

Return reported log10 of EC50 for target or system hEP2/Gqs5 (Homo sapiens), item CCCCCC(O)c1ccc([C@@H]2[C@@H](C/C=C\CCCC(=O)O)CC[C@H]2Cl)cc1 (stereo partly shown) . 2.86

Return reported log10 of EC50 for target or system hEP2/Gqs5 (Homo sapiens), item CCCCCC(O)c1ccc([C@@H]2[C@@H](C/C=C\CCCC(=O)O)CC[C@H]2O)cc1 (stereo partly shown) . 3.40

----------
molecular target: EP2 (Homo sapiens); assay: cAMP measurement, EP2 (data in parentheses); type: cell-based; details: data in parentheses refer to cAMP measurement
Sequence (P43116 whole entry): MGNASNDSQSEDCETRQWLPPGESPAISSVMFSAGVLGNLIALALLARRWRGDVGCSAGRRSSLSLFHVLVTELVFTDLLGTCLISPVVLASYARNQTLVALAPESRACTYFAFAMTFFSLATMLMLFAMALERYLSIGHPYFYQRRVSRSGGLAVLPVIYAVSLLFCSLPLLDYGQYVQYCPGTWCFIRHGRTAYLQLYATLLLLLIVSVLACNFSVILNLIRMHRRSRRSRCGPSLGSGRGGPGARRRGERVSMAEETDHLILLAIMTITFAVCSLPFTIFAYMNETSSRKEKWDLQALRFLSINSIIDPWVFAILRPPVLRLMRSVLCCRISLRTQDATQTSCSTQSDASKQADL
Quick list: EC50 per entry.
Give a bare numeral; the unit nM is implied.

Sample answers from the record:
{"columns": ["MOLECULE", "EC50 [nM]"],
 "data": [
  ["CCCCCC(O)c1ccc([C@@H]2[C@@H](CCCc3ccc(C(=O)O)s3)CCC2(Cl)Cl)cc1 (stereo partly shown)", 3],
  ["CCCCCC(O)c1ccc([C@@H]2[C@@H](C/C=C\\CCCC(=O)O)CC[C@H]2O)cc1 (stereo partly shown)", 73],
  ["CCCCCC(O)c1ccc([C@H]2C(=O)CC[C@@H]2CCCc2ccc(C(=O)O)s2)cc1 (stereo partly shown) [compound 1]", 5],
  ["CCCCCC(O)c1ccc([C@H]2C(=O)CC[C@@H]2CCCc2ccc(C(=O)O)s2)cc1 (stereo partly shown) [compound 2]", 9],
  ["CCCCCC(O)c1ccc([C@H]2C(=O)C=C[C@@H]2CCCc2ccc(C(=O)O)s2)cc1 (stereo partly shown)", 9],
  ["CCCCCC(O)c1ccc([C@H]2C(=O)CC[C@@H]2C/C=C\\CCCC(=O)O)cc1 (stereo partly shown)", 34]
]}

Now consider the entry below.
# return recorded EC50 for input CCCCCC(O)c1ccc([C@@H]2[C@@H](C/C=C\CCCC(=O)O)CC[C@H]2Cl)cc1 (stereo partly shown) 94

----------
target: hEP3A/Gqi5 (Homo sapiens); construct: expressed in transfected cells; host or cells: HEK-293(EBNA); assay: FLIPR calcium signal, HEK-293(EBNA) cells expressing hEP3A/Gqi5; format: cell-based; settings: read-out: Ca2+ Signal-EC50(nM) EP3
Sequence (P43115 whole entry): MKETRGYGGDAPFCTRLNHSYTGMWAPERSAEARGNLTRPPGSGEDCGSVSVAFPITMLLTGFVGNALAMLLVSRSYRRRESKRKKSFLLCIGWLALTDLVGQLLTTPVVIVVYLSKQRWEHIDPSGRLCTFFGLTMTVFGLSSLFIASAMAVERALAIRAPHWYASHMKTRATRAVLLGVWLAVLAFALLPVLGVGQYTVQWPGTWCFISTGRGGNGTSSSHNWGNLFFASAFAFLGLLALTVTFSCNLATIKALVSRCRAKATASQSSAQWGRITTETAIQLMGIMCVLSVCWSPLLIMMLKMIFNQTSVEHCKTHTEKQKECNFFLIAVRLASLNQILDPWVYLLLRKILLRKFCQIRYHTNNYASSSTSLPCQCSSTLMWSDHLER
READOUT: EC50 (nM)
Give a bare numeral; the unit nM is implied.

{"columns": ["COMPOUND", "RESULT UNITS", "EC50"],
 "data": [
  ["CCCCCC(O)c1ccc([C@H]2C(=O)CC[C@@H]2C/C=C\\CCCC(=O)O)cc1 (some centres unmarked)", "nM", 4420]
]}

Return reported EC50 for target or system hEP3A/Gqi5 (Homo sapiens), item CCCCCC(O)c1ccc([C@@H]2[C@@H](C/C=C\CCCC(=O)O)CC[C@H]2Cl)cc1 (some centres unmarked) . 182

Return reported EC50 for target or system hEP3A/Gqi5 (Homo sapiens), item CCCCCC(O)c1ccc([C@H]2C(=O)CC[C@@H]2CCCc2ccc(C(=O)O)s2)cc1 (some centres unmarked) . 8780

Return reported EC50 for target or system hEP3A/Gqi5 (Homo sapiens), item CCCCCC(O)c1ccc([C@H]2C(=O)C=C[C@@H]2CCCc2ccc(C(=O)O)s2)cc1 (some centres unmarked) . 4550

Return reported EC50 for target or system hEP3A/Gqi5 (Homo sapiens), item CCCCCC(O)c1ccc([C@@H]2[C@@H](C/C=C\CCCC(=O)O)CC[C@H]2O)cc1 (some centres unmarked) . 3480
